experiment: Inhibition of haTRAP-induced human platelet aggregation; type: functional, cell-based

Mol smiles: C[C@H]1OC(=O)[C@@H]2C[C@@H]3C[C@H](O)CC[C@H]3[C@H](/C=C/c3ccc(-c4cccc(C(F)(F)F)c4)cn3)[C@H]12
IC50: 60 nM

###

assay: Solubility of the compound; assay type: physicochemical

Mol smiles: C[C@H]1OC(=O)[C@@H]2C[C@@H]3CC(F)(F)CC[C@H]3[C@H](/C=C/c3ccc(-c4cccc(Cl)c4)cn3)[C@H]12
solubility: 5 µM

Mol smiles: C[C@H]1OC(=O)[C@@H]2C[C@H]3[C@@H](CCCC3(F)F)[C@H](/C=C/c3ccc(-c4cccc(C(F)(F)F)c4)cn3)[C@H]12
solubility: 5 µM

Mol smiles: C[C@H]1OC(=O)[C@@H]2C[C@@H]3CC(F)(F)CC[C@H]3[C@H](/C=C/c3ccc(-c4cccc(C(F)(F)F)c4)cn3)[C@H]12
solubility: 5 µM

###

assay: AUC (0-24h) in Sprague-Dawley rat at 300 mg/kg, po after 1 day; format: ADME, organism-based; set-up: time < 24 hr, dose 300 mg/kg, route oral; conditions: plasma

Mol smiles: C[C@H]1OC(=O)[C@@H]2C[C@@H]3CCCC[C@H]3[C@H](/C=C/c3ccc(-c4cccc(C(F)(F)F)c4)cn3)[C@H]12
AUC(0-t) at 24 h, ng·h/mL: 35000
//
Mol smiles: C[C@H]1OC(=O)[C@@H]2C[C@@H]3C[C@@H](O)CC[C@H]3[C@H](/C=C/c3ccc(-c4cccc(C(F)(F)F)c4)cn3)[C@H]12
AUC(0-t) at 24 h, ng·h/mL: 18000
//
Mol smiles: C[C@H]1OC(=O)[C@@H]2C[C@H]3[C@@H](CCC[C@@H]3O)[C@H](/C=C/c3ccc(-c4cccc(C(F)(F)F)c4)cn3)[C@H]12
AUC(0-t) at 24 h, ng·h/mL: 49000
//
Mol smiles: C[C@H]1OC(=O)[C@@H]2C[C@@H]3C[C@H](O)CC[C@H]3[C@H](/C=C/c3ccc(-c4cccc(C(F)(F)F)c4)cn3)[C@H]12
AUC(0-t) at 24 h, ng·h/mL: 93000

###

experiment: Cmax in Sprague-Dawley rat at 300 mg/kg, po after 10 days; assay type: ADME, organism-based; set-up: dose 300 mg/kg, route oral; settings: in vivo

Mol smiles: C[C@H]1OC(=O)[C@@H]2C[C@H]3[C@@H](CCC[C@@H]3O)[C@H](/C=C/c3ccc(-c4cccc(C(F)(F)F)c4)cn3)[C@H]12
Cmax: 79000 ng/mL
//
Mol smiles: C[C@H]1OC(=O)[C@@H]2C[C@@H]3C[C@H](O)CC[C@H]3[C@H](/C=C/c3ccc(-c4cccc(C(F)(F)F)c4)cn3)[C@H]12
Cmax: 25000 ng/mL
//
Mol smiles: C[C@H]1OC(=O)[C@@H]2C[C@@H]3C[C@@H](O)CC[C@H]3[C@H](/C=C/c3ccc(-c4cccc(C(F)(F)F)c4)cn3)[C@H]12
Cmax: 47000 ng/mL
//
Mol smiles: C[C@H]1OC(=O)[C@@H]2C[C@@H]3CCCC[C@H]3[C@H](/C=C/c3ccc(-c4cccc(C(F)(F)F)c4)cn3)[C@H]12
Cmax: 17000 ng/mL
